settings: in methyl acetate, 298.15 K
assay endpoint: solubility (mole fraction)

INSERT INTO assay_data (mol, numeric_readout) VALUES
  ('Brc1cnc2[nH]ccc2c1', 0.0347);

---

conditions: in n-hexane, 303.15 K
assay endpoint: solubility (mole fraction)

INSERT INTO measurements (mol, assay_endpoint, numeric_readout) VALUES
  ('Brc1cnc2[nH]ccc2c1', 'solubility (mole fraction)', 0.00027);

---

conditions: in isopropanol, 293.15 K
assay endpoint: solubility (mole fraction)

INSERT INTO results (mol, assay_endpoint, numeric_readout) VALUES
  ('Brc1cnc2[nH]ccc2c1', 'solubility (mole fraction)', 0.0123);

Provenance of the data: BigSolDB 2.1
